Source of measurements: patent US10676465B2

# subject of test: human GLP-1R (Homo sapiens, UniProt P43220, G168S)
# Sequence (P43220 24-463 G168S limits assumed): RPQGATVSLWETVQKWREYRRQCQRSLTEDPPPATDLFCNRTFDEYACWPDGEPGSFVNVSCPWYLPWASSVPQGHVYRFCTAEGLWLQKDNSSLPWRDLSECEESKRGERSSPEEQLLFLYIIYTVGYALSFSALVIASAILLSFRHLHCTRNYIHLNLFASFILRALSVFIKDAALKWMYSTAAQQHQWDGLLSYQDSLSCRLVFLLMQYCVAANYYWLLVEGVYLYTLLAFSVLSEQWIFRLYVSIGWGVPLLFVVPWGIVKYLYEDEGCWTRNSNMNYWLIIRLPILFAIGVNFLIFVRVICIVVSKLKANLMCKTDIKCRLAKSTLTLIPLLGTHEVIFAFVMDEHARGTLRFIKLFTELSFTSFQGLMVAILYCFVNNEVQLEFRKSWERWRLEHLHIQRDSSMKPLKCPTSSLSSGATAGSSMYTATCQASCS
# assay info: CHO GLP-1R Clone H6 - Assay 1 (HTRF cAMP agonist assay)
# assay setup: CHO GLP-1R Clone H6, cAMP HTRF; geometric mean
EC50 values by entry
The reply should contain only the number, in µM.

# example entries with known answers
- COCCn1c(CN2CCN(c3cccc4c3OC(c3ccc(Cl)cc3F)O4)CC2)nc2ccc(C(=O)O)cc21 (single isomer, unassigned) [Example 2]: 0.0066
- CNC(=O)Cn1c(CN2CCC(c3cccc4c3OC(C)(c3ccc(Cl)cc3F)O4)CC2)nc2ccc(C(=O)O)cc21 (stereo not shown) [Example 52]: 0.032

// query Give human GLP-1R (Homo sapiens, UniProt P43220, G168S) EC50 for the following compound: COCCn1c(CN2CCC(c3cccc4c3OC(C)(c3ccc(Cl)cn3)O4)CC2)nc2ccc(C(=O)O)cc21 (stereo not shown) [Example 91]
// result 14

// query Consider the compound COCCn1c(CN2CCC(c3cccc4c3OC(C)(c3ccccc3OC)O4)CC2)nc2ccc(C(=O)O)cc21 (stereo not shown) [Example 37] tested on human GLP-1R (Homo sapiens, UniProt P43220, G168S); state its EC50.
// result 0.081

// query State, for human GLP-1R (Homo sapiens, UniProt P43220, G168S), measured EC50 of the compound listed here: CN(C)C(=O)Cn1c(CN2CCC(c3cccc4c3OC(C)(c3ccc(Cl)cc3F)O4)CC2)nc2ccc(C(=O)O)cc21 (stereo not shown) [Example 66]
// result 0.051

// query Look up human GLP-1R (Homo sapiens, UniProt P43220, G168S) data: EC50 of O=C(O)c1ccc2nc(CN3CCC(c4cccc5c4O[C@@H](c4ccc(Cl)cc4F)O5)CC3)n(C[C@@H]3CCO3)c2c1 [Example 5] , then report it.
// result 0.0013

// query Provide measured EC50 on human GLP-1R (Homo sapiens, UniProt P43220, G168S) for COCCn1c(CN2CCC(c3cccc4c3OC(C)(c3ccc(Cl)cn3)O4)CC2)nc2ccc(C(=O)O)cc21.N (stereo not shown) [Example 92] please.
// result 0.0042
